Origin of values: patent US20250270324A1

In this section, each of the binders is paired with its reported pKd.
assayed.system: T1, human PD-L1-rCD4-His (human)
T1 construct: Human PD-L1 fused to the monomeric C-terminal rat CD4 domains 3 and 4 tag and His tag; made in HEK293; The entry as printed begins with the signal peptide (MRIF...); also called hPD-L1-rCD4-His; hu-PD-L1-rCD4-His
T1 sequence (chain, as listed by the source limits assumed): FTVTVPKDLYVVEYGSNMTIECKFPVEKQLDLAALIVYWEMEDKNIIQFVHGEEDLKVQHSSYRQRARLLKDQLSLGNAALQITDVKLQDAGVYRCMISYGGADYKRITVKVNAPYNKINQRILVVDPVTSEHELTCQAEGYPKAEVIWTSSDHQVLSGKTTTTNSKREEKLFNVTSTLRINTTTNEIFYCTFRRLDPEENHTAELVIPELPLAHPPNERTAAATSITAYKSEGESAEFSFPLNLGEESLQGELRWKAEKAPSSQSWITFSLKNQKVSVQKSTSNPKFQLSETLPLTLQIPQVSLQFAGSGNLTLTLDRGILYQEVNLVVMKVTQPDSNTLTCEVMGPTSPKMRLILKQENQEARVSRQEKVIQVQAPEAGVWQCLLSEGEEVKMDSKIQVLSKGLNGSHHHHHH
test.name: SPR, IgG1 from culture supernatant
Just the number, please; pKd means minus log10 of the concentration in mol/L.

binder	pKd
G1/929_01_A06 (antibody, human IgG1, V domains shown, IgG1) VH: EVQLVQSGAEVKRPGASVKVSCKASGYTFTSYGISWVRQAPGQGLEWMGWISAYSGNANYAQKLQGRVTMTTDTSTSTAYMELRSLRSDDTAVYYCARDLFPTIFGVSYYYYWGQGTLVTVSS VL: DIQMTQSPSTLSASVGDRVTITCRASQSISGRLAWYQQKPGKAPNLLIYEASNLESGVPSRFSGSGSGTEFTLTINSLQPDDFATYYCQQANTFPRVSFGGGTKVEIKR	9.35

Problem: Look at this binder and give its reported pKd. G1/929_01_A05 (antibody, human IgG1, V domains shown, IgG1) VH: EVQLVQSGAEVKRPGASVKVSCKASGYTFTSYGISWVRQAPGQGLEWMGWISAYSGGTNYAQKLQGRVTMTTDTSTSTAYMELRSLRSDDTAVYYCARDLFPTIFGVSYYYYWGQGTLVTVSS VL: DIQMTQSPSTLSASVGDRVTITCRASQSISGRLAWYQQKPGKAPNLLIYEASNLESGVPSRFSGSGSGTEFTLTINSLQPDDFATYYCQQANTFPRVSFGGGTKVEIKR
Solution: 9.26

Problem: Now consider G1/929_01_A01 (antibody, human IgG1, V domains shown, IgG1; The heavy chain as printed has T28) VH: EVQLVQSGAEVKRPGASVKVSCKASGYTFTSYGISWVRQAPGQGLEWMGWISAYGGSTNYAQKLQGRVTMTTDTSTSTAYMELRSLRSDDTAVYYCARDLFPTIFGVSYYYYWGQGTLVTVSS VL: DIQMTQSPSTLSASVRDRVIITCRASQSIGNRLAWYQHKPGKAPKLLIYEASTSETGVPSRFSGSGSGTDFTLTISSLQPEDFATYYCQQSYSTPYTFGQGTKLEIKR and answer again.
Solution: 8.58

Problem: Now consider G1/929_01_A02 (antibody, human IgG1, V domains shown, IgG1; The heavy chain as printed has T28) VH: EVQLVQSGAEVKRPGASVKVSCKASGYTFTSYGISWVRQAPGQGLEWMGWISAYSGGTNYAQKLQGRVTMTTDTSTSTAYMELRSLRSDDTAVYYCARDLFPTIFGVSYYYYWGQGTLVTVSS VL: DIQMTQSPSTLSASVRDRVIITCRASQSIGNRLAWYQHKPGKAPKLLIYEASTSETGVPSRFSGSGSGTDFTLTISSLQPEDFATYYCQQSYSTPYTFGQGTKLEIKR and answer again.
Solution: 8.51

Problem: Now consider G1/929_01_A10 (antibody, human IgG1, V domains shown, IgG1) VH: EVQLVQSGAEVKRPGASVKVSCKASGYTFTSYGISWVRQAPGQGLEWMGWISAYGGSTNYAQKLQGRVTMTTDTSTSTAYMELRSLRSDDTAVYYCARDLFPTIFGVSYYYYWGQGTLVTVSS VL: DIQMTQSPSTLSASVGDRVTITCRASQSISGRLAWYQQKPGKAPNLLIYEASNLESGVPSRFSGSGSGTEFTLTISSLQPEDFATYYCQQSYSWPRTFGQGTKVEIKR and answer again.
Solution: 9.38

Problem: Now consider G1/887_04_E12 (antibody, human IgG1, V domains shown, IgG1 without LALA, kappa light chain; proline at Kabat position 28 of VH) VH: EVQLVQSGAEVKRPGASVKVSCKASGYPFTSYGISWVRQAPGQGLEWMGWISAYNSNTNYAQKLQGRVTMTTDTSTSTAYMELRSLRSDDTAVYYCARDLFPTIFGVSYYYYWGQGTLVTVSS VL: DIQMTQSPSTLSASVRDRVIITCRASQSIGNRLAWYQHKPGKAPKLLIYEASTSETGVPSRFSGSGSGTDFTLTISSLQPEDFATYYCQQSYSTPYTFGQGTKLEIKR and answer again.
Solution: 9.68
